Assay: Population pharmacokinetic model
Assay type: in vivo, human
Conditions: human, whole blood, oral
measurement_name: Vd/F
Output should be the measured figure followed by the unit it is expressed in.

Vd/F reading for C=CC[C@@H]1/C=C(\C)C[C@H](C)C[C@H](OC)[C@H]2O[C@@](O)(C(=O)C(=O)N3CCCC[C@H]3C(=O)O[C@H](/C(C)=C/[C@@H]3CC[C@@H](O)[C@H](OC)C3)[C@H](C)[C@@H](O)CC1=O)[C@H](C)C[C@@H]2OC : 234 L
